target: UniProt P04585
pIC50: −log10 of the molar value.
Measured Metric: pIC50

> print(dat)
                                    compound  reported.measurement
 1  COc1ccc(S(=O)(=O)N(C[C@@H](O)[C@H](Cc2ccccc2)NC(=O)C2CCNCC2)C2CC2)cc1 [26a]                  6.81
 2  COc1ccc(S(=O)(=O)N(C[C@@H](O)[C@H](Cc2ccccc2)NC(=O)[C@@H]2CCCNC2)C2CC2)cc1 [22a]                  8.44
 3  O=C(N[C@@H](Cc1ccccc1)[C@H](O)CN(C1CC1)S(=O)(=O)c1ccc(C(F)(F)F)cc1)[C@@H]1CCCNC1 [22b]                  8.08
 4  COc1ccc(S(=O)(=O)N(C[C@@H](O)[C@H](Cc2ccccc2)NC(=O)[C@H]2CCCNC2)C2CC2)cc1 [23a]                  6.36
 5  Nc1ccc(S(=O)(=O)N(C[C@@H](O)[C@H](Cc2ccccc2)NC(=O)[C@@H]2CCCNC2)C2CC2)cc1 [22d]                  8.00
 6  COc1ccc(S(=O)(=O)N(C[C@@H](O)[C@H](Cc2ccccc2)NC(=O)[C@H]2CCCN(C)C2)C2CC2)cc1 [25a]                  6.55
 7  CN1CCC[C@@H](C(=O)N[C@@H](Cc2ccccc2)[C@H](O)CN(C2CC2)S(=O)(=O)c2ccc(N)cc2)C1 [24d]                  7.79
 8  O=C(N[C@@H](Cc1ccccc1)[C@H](O)CN(C1CC1)S(=O)(=O)c1ccc([N+](=O)[O-])cc1)[C@@H]1CCCNC1 [22c]                  7.77
 9  Nc1ccc(S(=O)(=O)N(C[C@@H](O)[C@H](Cc2ccccc2)NC(=O)[C@H]2CCCNC2)C2CC2)cc1 [23d]                  6.50
10  COc1ccc(S(=O)(=O)N(C[C@@H](O)[C@H](Cc2ccccc2)NC(=O)CN2CCCCC2)C2CC2)cc1 [27a]                  6.64
11  O=C(N[C@@H](Cc1ccccc1)[C@H](O)CN(C1CC1)S(=O)(=O)c1ccc([N+](=O)[O-])cc1)[C@H]1CCCNC1 [23c]                  6.32
12  CN1CCC[C@@H](C(=O)N[C@@H](Cc2ccccc2)[C@H](O)CN(C2CC2)S(=O)(=O)c2ccc([N+](=O)[O-])cc2)C1 [24c]                  7.40
13  O=C(N[C@@H](Cc1ccccc1)[C@H](O)CN(C1CC1)S(=O)(=O)c1ccc(C(F)(F)F)cc1)[C@H]1CCCNC1 [23b]                  6.58

###

Measured Metric: melting point

> print(dat)
                                    compound  measured.metric  reported.measurement
 1  CN1CCC[C@H](C(=O)N[C@@H](Cc2ccccc2)[C@H](O)CN(C2CC2)S(=O)(=O)c2ccc(N)cc2)C1 [25d]    melting point       76.8 to 78.5 °C
 2  O=C(N[C@@H](Cc1ccccc1)[C@H](O)CN(C1CC1)S(=O)(=O)c1ccc(C(F)(F)F)cc1)[C@@H]1CCCNC1 [22b]    melting point     204.8 to 206.3 °C
 3  Nc1ccc(S(=O)(=O)N(C[C@@H](O)[C@H](Cc2ccccc2)NC(=O)[C@H]2CCCNC2)C2CC2)cc1 [23d]    melting point       77.8 to 79.4 °C
 4  Nc1ccc(S(=O)(=O)N(C[C@@H](O)[C@H](Cc2ccccc2)NC(=O)[C@@H]2CCCNC2)C2CC2)cc1 [22d]    melting point     216.5 to 218.3 °C
 5  O=C(CN1CCCCC1)N[C@@H](Cc1ccccc1)[C@H](O)CN(C1CC1)S(=O)(=O)c1ccc([N+](=O)[O-])cc1 [27c]    melting point       82.9 to 84.1 °C
 6  O=C(N[C@@H](Cc1ccccc1)[C@H](O)CN(C1CC1)S(=O)(=O)c1ccc([N+](=O)[O-])cc1)C1CCNCC1 [26c]    melting point     186.2 to 187.7 °C
 7  COc1ccc(S(=O)(=O)N(C[C@@H](O)[C@H](Cc2ccccc2)NC(=O)[C@@H]2CCCN(C)C2)C2CC2)cc1 [24a]    melting point       86.4 to 88.2 °C
 8  O=C(N[C@@H](Cc1ccccc1)[C@H](O)CN(C1CC1)S(=O)(=O)c1ccc([N+](=O)[O-])cc1)[C@H]1CCCNC1 [23c]    melting point     155.9 to 157.2 °C
 9  COc1ccc(S(=O)(=O)N(C[C@@H](O)[C@H](Cc2ccccc2)NC(=O)C2CCNCC2)C2CC2)cc1 [26a]    melting point     219.9 to 221.3 °C
10  COc1ccc(S(=O)(=O)N(C[C@@H](O)[C@H](Cc2ccccc2)NC(=O)CN2CCCCC2)C2CC2)cc1 [27a]    melting point       63.6 to 65.8 °C
11  COc1ccc(S(=O)(=O)N(C[C@@H](O)[C@H](Cc2ccccc2)NC(=O)[C@@H]2CCCNC2)C2CC2)cc1 [22a]    melting point     162.8 to 164.3 °C
12  CN1CCC[C@H](C(=O)N[C@@H](Cc2ccccc2)[C@H](O)CN(C2CC2)S(=O)(=O)c2ccc(C(F)(F)F)cc2)C1 [25b]    melting point     102.7 to 104.6 °C
13  O=C(N[C@@H](Cc1ccccc1)[C@H](O)CN(C1CC1)S(=O)(=O)c1ccc(C(F)(F)F)cc1)C1CCNCC1 [26b]    melting point     243.3 to 245.1 °C
14  COc1ccc(S(=O)(=O)N(C[C@@H](O)[C@H](Cc2ccccc2)NC(=O)[C@H]2CCCN(C)C2)C2CC2)cc1 [25a]    melting point       88.9 to 91.2 °C
15  O=C(CN1CCCCC1)N[C@@H](Cc1ccccc1)[C@H](O)CN(C1CC1)S(=O)(=O)c1ccc(C(F)(F)F)cc1 [27b]    melting point       72.3 to 75.2 °C
16  CN1CCC[C@H](C(=O)N[C@@H](Cc2ccccc2)[C@H](O)CN(C2CC2)S(=O)(=O)c2ccc([N+](=O)[O-])cc2)C1 [25c]    melting point     133.2 to 134.8 °C
17  Nc1ccc(S(=O)(=O)N(C[C@@H](O)[C@H](Cc2ccccc2)NC(=O)C2CCNCC2)C2CC2)cc1 [26d]    melting point     204.7 to 206.5 °C
18  COc1ccc(S(=O)(=O)N(C[C@@H](O)[C@H](Cc2ccccc2)NC(=O)[C@H]2CCCNC2)C2CC2)cc1 [23a]    melting point       92.9 to 94.7 °C
19  CN1CCC[C@@H](C(=O)N[C@@H](Cc2ccccc2)[C@H](O)CN(C2CC2)S(=O)(=O)c2ccc(N)cc2)C1 [24d]    melting point       75.8 to 77.3 °C
20  O=C(N[C@@H](Cc1ccccc1)[C@H](O)CN(C1CC1)S(=O)(=O)c1ccc(C(F)(F)F)cc1)[C@H]1CCCNC1 [23b]    melting point     236.5 to 238.4 °C
21  Nc1ccc(S(=O)(=O)N(C[C@@H](O)[C@H](Cc2ccccc2)NC(=O)CN2CCCCC2)C2CC2)cc1 [27d]    melting point     144.4 to 146.2 °C
22  CN1CCC[C@@H](C(=O)N[C@@H](Cc2ccccc2)[C@H](O)CN(C2CC2)S(=O)(=O)c2ccc(C(F)(F)F)cc2)C1 [24b]    melting point       82.9 to 84.7 °C
23  O=C(N[C@@H](Cc1ccccc1)[C@H](O)CN(C1CC1)S(=O)(=O)c1ccc([N+](=O)[O-])cc1)[C@@H]1CCCNC1 [22c]    melting point     196.8 to 198.4 °C
24  CN1CCC[C@@H](C(=O)N[C@@H](Cc2ccccc2)[C@H](O)CN(C2CC2)S(=O)(=O)c2ccc([N+](=O)[O-])cc2)C1 [24c]    melting point     159.9 to 161.2 °C
